Where these numbers come from: paper PMC7942396

- Test system: Vero E6 cells
- Run Conditions: cytotoxicity counter-assay, Vero E6 cells without virus
So I've got a bunch of compounds here, and I need their % Cytotox values.
One number for each entry, in %.

Exercise: Under Vero E6 cells, report % Cytotox for CC(C)c1ccc(NC(=O)C(c2ccccc2)N(C)C(=O)Cc2c[nH]c3ccccc23)cc1 (stereo not shown)
Solution: 110.5

Exercise: Consider the compound Cc1cccc2c1CC[C@H](CN1CCC(c3c(Cl)cccc3Cl)CC1)C[C@@H]2O.Cl [SB 612111 hydrochloride] tested on Vero E6 cells; state its % Cytotox.
Solution: 59.7

Exercise: State recorded % Cytotox with Vero E6 cells, entry CCOc1ccc(-c2nc(-c3cccc4c3CCC4NCCO)no2)cc1OCC.Cl (stereo not shown) [CYM 5442 hydrochloride] , no comment.
Solution: 0.0

Exercise: Check Vero E6 cells data and give % Cytotox for CCN(CC)CCCCNc1nc2cc(Cl)c(Cl)cc2nc1-c1ccc(-c2cccs2)s1 .
Solution: 107.5

Exercise: Provide % Cytotox, system Vero E6 cells, entry CC(C)(C)Cn1c(N)nc2ccc(-c3[nH]c(C(C)(C)C)nc3-c3ccc(F)cc3)nc21 [LY-2228820 (ralimetinib)]
Solution: 78.9

Give me % Cytotox for each of these compounds, listed below.
1. O=C(CCC1CCN(Cc2ccccc2)CC1)c1ccc2c(c1)NCCCC2.O=C(O)/C=C/C(=O)O [Zanapezil fumerate]
2. Cl.Cl.O=S(=O)(c1cccc2ccccc12)n1ccc2ccc(N3CCN4CCCC4C3)cc21 (stereo not shown) [NPS ALX Compound 4a dihydrochloride]
3. C/C=C(\C)C(=O)O[C@H]1CC2C(=C1C)[C@H]1OC(=O)[C@](C)(O)[C@]1(O)[C@H](OC(=O)CCC)C[C@@]2(C)OC(C)=O (stereo partly shown)

Solution:
[0.0, 93.1, 48.4]

* * *

- Assay Overview: in vitro
- Run Conditions: African green monkey
Where a name gives a salt, the structure may show the parent alone. *1 amine or outer side, *2 acyl side, *3 side chain or, on linkers, in order; H or OH if unused. Where a SMILES comes first, the peptide text is derived from it. Bridges are numbered along the chain shown (N, C = ends). [ ]: non-standard residue; d: D form. The star is where a group is joined. pTerphenylCO(4''-OnC5H11) = CCCCCOc1ccc(-c2ccc(-c3ccc(C(=O)*)cc3)cc2)cc1; Orn(4R-OH,5R-OH) = O=C([C@H](C[C@@H](O)[C@@H](O)N[*:3])N[*:1])[*:2]; hTyr(3S-OH,4S-OH) = N[C@H](C(=O)O)[C@H](O)[C@@H](O)c1ccc(O)cc1; Pro(3S-OH,4S-Me) = C[C@H]1CN[C@H](C(=O)O)[C@H]1O; Hyp = O=C(O)[C@@H]1C[C@@H](O)CN1
Simple rule here: cytotoxicity less than 10% is condition met, otherwise condition not met.

Worked set:
Exercise: Answer whether the compound CN1[C@@H]2CC[C@H]1C[C@@H](OC(c1ccccc1)c1ccccc1)C2 [Benztropine mesylate] has cytotoxicity strictly less than 10%
Solution: condition met

Exercise: I'd appreciate it if you could check whether CCCCCOc1ccc(-c2ccc(-c3ccc(C(=O)N[C@H]4C[C@@H](O)[C@@H](O)NC(=O)[C@@H]5[C@@H](O)[C@@H](C)CN5C(=O)[C@H]([C@@H](C)O)NC(=O)[C@H]([C@H](O)[C@@H](O)c5ccc(O)cc5)NC(=O)[C@@H]5C[C@@H](O)CN5C(=O)[C@H]([C@@H](C)O)NC4=O)cc3)cc2)cc1 [Anidulafungin] ({pTerphenylCO(4''-OnC5H11)}-[Orn(4R-OH,5R-OH)]T[Hyp][hTyr(3S-OH,4S-OH)]T[Pro(3S-OH,4S-Me)]; lactam 1-C) has cytotoxicity smaller than 10%.
Solution: condition not met

Exercise: Regarding COC(=O)[C@H]1[C@H]2C[C@@H]3c4[nH]c5cc(OC)ccc5c4CCN3C[C@H]2C[C@@H](OC(=O)c2cc(OC)c(OC)c(OC)c2)[C@@H]1OC [Reserpine] , kindly confirm whether its cytotoxicity is beneath 10%.
Solution: condition not met

Exercise: I'd appreciate it if you could check whether CNCCCN1c2ccccc2CCc2ccccc21 [Desipramine hydrochloride] has cytotoxicity smaller than 10%.
Solution: condition met

Exercise: Hi there! Is cytotoxicity for Clc1ccc2c(c1)CCc1cccnc1C2=C1CCNCC1 [Desloratadine] below 10%, do you know?
Solution: condition not met

More entries:
Exercise: Criterion: cytotoxicity strictly below 10%. Is it met by CC1(C)CC(=O)c2c(C(F)(F)F)nn(-c3ccc(C(N)=O)c(N[C@H]4CC[C@H](OC(=O)CN)CC4)c3)c2C1 [SNX-5422] ?
Solution: condition not met

Exercise: Here's an entry: CCCCN(CCCC)CCC(O)c1cc2c(Cl)cc(Cl)cc2c2cc(C(F)(F)F)ccc12 (stereo not shown) [Halofantrine] . Is its cytotoxicity below 10%?
Solution: condition not met

* * *

- System: SARS-CoV-2 (USA_WA1/2020)
- Assay Overview: microbe, parasite or virus in culture
- Type: cell-based
- Run Conditions: Severe acute respiratory syndrome coronavirus 2, Vero C1008; SARS-CoV-2 CPE assay, Vero E6 cells; efficacy; read-out: CPE % Efficacy
Property: Emax (%)
One number for each entry, in %.

Examples from the recorded data:
Exercise: Note Emax for the compound shown: CCn1c(-c2nonc2N)nc2cnc(Oc3cccc(NC(=O)c4ccc(OCCN5CCOCC5)cc4)c3)cc21 [GSK-269962A]
Solution: 41.8

Exercise: Determine from records and report Emax for COc1ccc2c(c1)[C@]1(C[C@H]1c1ccc3c(/C=C/c4ccc(CN5C[C@@H](C)O[C@@H](C)C5)cc4)n[nH]c3c1)C(=O)N2
Solution: 77.8

Exercise: Quote Emax reported for Cn1c(Nc2ccc(C(F)(F)F)cc2)nc2cc(Oc3ccnc(-c4ncc(C(F)(F)F)[nH]4)c3)ccc21 please.
Solution: 31.7

Exercise: // Input: CN(C)CCOC(C)(c1ccccc1)c1ccc(Cl)cc1 (stereo not shown) . Output its Emax only.
Solution: 75.3

Each compound below has a recorded value; state its Emax.
1. CCCCN(CCCC)CCC(O)c1cc2c(Cl)cc(Cl)cc2c2cc(C(F)(F)F)ccc12 (stereo not shown)
2. Cc1cn(CCN2CCN(c3ccccc3-c3cc(C#N)cc(C(=O)NCCCN4CCCC4)c3)CC2)c2ccccc12
3. COC(=O)[C@H]1[C@H]2C[C@@H]3c4[nH]c5cc(OC)ccc5c4CCN3C[C@H]2C[C@@H](OC(=O)c2cc(OC)c(OC)c(OC)c2)[C@@H]1OC

Solution:
1: 73.4; 2: 59.6; 3: 91.8

* * *

- Test system: Vero E6 cells
- Run Conditions: cytotoxicity counter-assay, Vero E6 cells without virus
# note: exactly 30% is not below, so it is 0 (no); use 1 (yes) for % Cytotox strictly under it

Exercise: A record lists Cn1ncc2cc(-c3cnc(N)c(Cl)c3N3CCC4(CCNC4=O)CC3)ccc21 [CCT-251921] . Is its % Cytotox below 30%?
Solution: 0 (no)

Exercise: In the record for COc1cc2nc(-c3ccc(N4CCN(C)CC4)cc3)nc(NCCN3CCOCC3)c2cc1OC [CPG-52364] , is % Cytotox less than 30%?
Solution: 0 (no)

New cases:
Exercise: Field: below-cutoff. Rule: recorded % Cytotox strictly less than 30%. Subject: O=c1[nH]c2ccccc2n1C1CCN(Cc2ccc(-c3nc4cc5nc[nH]c5cc4nc3-c3ccccc3)cc2)CC1 [Akt-I-1,2]
Solution: 0 (no)

Exercise: Dear reviewer, please state whether CCCCCCOc1ccc(C(=N)N(CCCC)CCCC)c2ccccc12.Cl [Bunamidine hydrochloride] has % Cytotox strictly beneath 30%.
Solution: 0 (no)

* * *

- Tested on: Vero E6 cells
- Run Conditions: read-out: Cytotox CC50; cytotoxicity counter-assay, Vero E6 cells without virus
Would you mind telling me the reported CC50 of each entry?
One number for each entry, in µM.

Example entries begin here.
Exercise: Note CC50 for the compound shown: COc1ccccc1Nc1nc(-c2sc(NC(C)=O)nc2C)cs1
Solution: 11.2

Exercise: Check the records and state CC50 for C/C=C(\C)C(=O)O[C@H]1CC2C(=C1C)[C@H]1OC(=O)[C@](C)(O)[C@]1(O)[C@H](OC(=O)CCC)C[C@@]2(C)OC(C)=O (some centres unmarked)
Solution: 4.39

Exercise: Provide one value: measured CC50 of C/C(=N\NC(=O)c1cccc(S(=O)(=O)N2CCOCC2)c1)c1cc(Cl)ccc1O
Solution: 1

Exercise: Specify CC50 for CCN(CC)CCCCNc1nc2cc(Cl)c(Cl)cc2nc1-c1ccc(-c2cccs2)s1 and stop.
Solution: 11.2

Items follow; give CC50 for each.
1. OC(CNc1ccccc1)Cn1c2ccc(Br)cc2c2cc(Br)ccc21 (centres unmarked)
2. CC(C)(C)c1ccc(C(=O)Nc2cc(Cl)c(Br)cc2C(=O)O)cc1
3. CCN(CC)Cc1cccc(/C=C/c2nc3ccc(F)cc3c(=O)n2-c2ccccc2Cl)n1.Cl [CP 465022 hydrochloride]
4. COc1cc2c(Nc3ccc(NC(=O)c4ccccc4)cc3)ncnc2cc1OCCCN1CCOCC1

Solution:
1. 11.2
2. 10
3. 12.6
4. 12.6
